# Experimental details: Cytotoxicity against African green monkey Vero E6 cells assessed as cell viability treated for 24 to 48 hrs by prestoblue staining based assay
# Format: toxicity, Vero C1008
# Cond: chlorocebus sabaeus, time 24-48 hrs
Quantity name: CC50

Name the reported CC50 value associated with the molecule O=C1c2c(O)cccc2[C@H]([C@@H]2O[C@H](CO)[C@@H](O)[C@H](O)[C@H]2O)c2cc(CO)cc(O)c21
> 100 µM

What do we get for O=C1c2c(O)cccc2[C@@H]([C@@H]2O[C@H](CO)[C@@H](O)[C@H](O)[C@H]2O)c2cc(CO)cc(O)c21 ?
> 100 µM

====

# System: SARS-CoV-2
# Experimental details: Antiviral activity against SARS-CoV-2 infected in African green monkey Vero cells assessed as viral growth inhibition measured after 72 hrs by LDH assay
# Assay type: functional, organism-based
# Cond: Severe acute respiratory syndrome coronavirus 2, Vero
Quantity name: EC50

Which EC50 is reported with SARS-CoV-2 for this entry: COc1cc(CNC(=O)C2CCN(C(C)c3cccc4ccccc34)CC2)ccn1 (stereo unspecified) ?
< 11 µM

====

# Test system: SARS-CoV-2
# Experimental details: Antiviral activity against SARS-CoV-2 infected in African green monkey Vero cells assessed as viral growth inhibition incubated for 1 hr by crystal violet staining based plaque reduction assay
# Assay type: functional, organism-based
# Cond: Severe acute respiratory syndrome coronavirus 2, Vero
Quantity name: pEC50
Interpret pEC50 as the negative base-10 log of the concentration measured in mol/L.

Which pEC50 is reported with SARS-CoV-2 for this entry: Cc1ccc(N)cc1C(=O)N[C@H](C)c1cccc2ccccc12 ?
5.50

====

Could you please report measured CC50 at 24 h for the items listed next?
# Experimental details: Cytotoxicity against African green monkey Vero E6 cells assessed as cell viability treated for 24 hrs by CCK8 assay
# Type: toxicity, cell-based, Vero C1008
# Cond: chlorocebus sabaeus

Name the reported CC50 at 24 h value associated with the molecule C[C@H]1COC2=C1C(=O)C(=O)c1c2ccc2c1CCCC2(C)C [CRYPTOTANSHINONE]
> 300 µM

What do we get for Cc1coc2c1C(=O)C(=O)c1c-2ccc2c(C)cccc12 [TANSHINONE I] ?
> 200 µM

====

# Experimental details: Cytotoxicity against African green monkey Vero cells assessed as cell viability
# Format: toxicity, cell-based
# Cond: chlorocebus sabaeus
Quantity name: CC50 (µM)
Only the number, expressed in µM, is required.

Name the reported CC50 value associated with the compound Nc1ccc2cc3ccc(N)cc3nc2c1
3.4

====

# Experimental details: Stability in human liver S9 fraction assessed as half life
# Assay type: ADME, subcellular
Quantity name: half-life (h)
Only the number, expressed in h, is required.

Name the reported half-life value associated with the compound COC(=O)/C=C/C(=O)NNC(=O)CCc1ccccc1C(=O)N[C@H](C)c1cccc2ccccc12
1

====

# Experimental details: Cytotoxicity against African green monkey Vero E6 cells assessed as cell viability
# Assay type: toxicity, cell-based, Vero C1008
# Cond: chlorocebus sabaeus
Quantity name: CC50 (µM)
Only the number, expressed in µM, is required.

Name the reported CC50 value associated with the compound Nc1nc2nc[nH]c2c(=S)[nH]1
35.5

====

# Experimental details: Stability in human liver microsome assessed as half life
# Assay type: ADME
# Cond: liver microsomes
Quantity name: half-life (min)
Only the number, expressed in min, is required.

Name the reported half-life value associated with the compound COC(=O)/C=C/C(=O)NNC(=O)CCc1ccccc1C(=O)N[C@H](C)c1cccc2ccccc12
50

====

# Experimental details: Selectivity index, ratio of CC50 for human A549 cells expressing ACE2 to EC50 for SARS-CoV-2 infected in human A549 cells expressing ACE2
# Format: toxicity, cell-based
# Cond: read-out: Ratio CC50/EC50
Quantity name: selectivity ratio
Reply: number alone, nothing else.

Name the reported selectivity ratio value associated with the compound Nc1ccc2cc3ccc(N)cc3nc2c1
36
